Every entry's value here was drawn from patent US4563478A.

- Procedure Text: Acute toxicity, mouse
- Experimental Context: in vivo, ip, intra-peritoneal, observation 14 days, read-out: DL50
- Text: |Observation period: 14 days

Molecule: O=C(O)CCCNCCC(=O)O [Compound (V), N-β-carboxyethyl-γ-aminobutyric acid]
LD50 at 336 h, mg/kg: 783

---

- Procedure Text: Acute toxicity, rat
- Experimental Context: in vivo, oral, observation 14 days, read-out: DL50

Structure Smiles String: O=C(O)CCCNCCC(=O)O
LD50 at 336 h: 1000 mg/kg

---

- Procedure Text: Acute toxicity, rat
- Experimental Context: in vivo, ip, intra-peritoneal, observation 14 days, read-out: DL50

Structure Smiles String: O=C(O)CCCNCCC(=O)O
LD50 at 336 h / mg/kg: 877
